Ref: patent US20230091047A1

Assay: in vitro
Assay type: cell-based
Settings: human, HepG2 or HepG2.117 cells, 3-days incubation (unmarked values), ATPlite; mean value
parameter_measured: CC50 at 3 days

CC(C)Nc1nc2c(c(=O)n1-c1ccc(S(C)(=O)=O)cc1)CCN(C(=O)c1nc3ccccc3o1)C2 [Compound C362] : > 50 µM

CC50 at 3 days recorded for this compound, CNC(=O)c1ccc(-n2c(NC)nc3c(c2=O)C[C@@H](C)N(C(=O)c2ccc(Cl)c(Cl)c2)C3)nc1 [Compound C331] , is > 50 µM

CC50 at 3 days recorded for this compound, CC(C)Nc1nc2c(c(=O)n1C1CCS(=O)(=O)CC1)CCN(C(=O)c1ccc(Cl)c(Cl)c1)C2 [Compound C120] , is > 50 µM

CC50 at 3 days recorded for this compound, CC(C)Nc1nc2c(c(=O)n1-c1ccc(S(C)(=O)=O)cc1)CCN(C(=O)c1ccc3cncn3c1)C2 [Compound C356] , is > 50 µM

CC50 at 3 days recorded for this compound, CC(C)Nc1nc2c(c(=O)n1-c1ccc(-c3ncccn3)cc1)CCN(C(=O)c1ccc(Cl)c(Cl)c1)C2 [Compound C187] , is > 45 µM

CC50 at 3 days recorded for this compound, O=C(c1ccc(Cl)c(Cl)c1)N1CCc2c(nc(NCc3ccccc3)n(-c3ccccc3)c2=O)C1 [Compound C33] , is 24.4 µM

CC50 at 3 days recorded for this compound, CC(C)Nc1nc2c(c(=O)n1[C@H]1CC[C@@H](S(C)(=O)=O)CC1)C[C@@H](C)N(C(=O)c1ccc(Cl)c(Cl)c1)C2 [Compound C262] , is 22.5 µM

CC50 at 3 days recorded for this compound, CNC(=O)c1ccc(-n2c(NC3CCC34CCC4)nc3c(c2=O)C[C@@H](C)N(C(=O)c2ccc(Cl)c(Cl)c2)C3)cc1 (stereo partly shown) [Compound C347] , is 24.2 µM

CC50 at 3 days recorded for this compound, CNC(=O)c1ccc(-n2c(N[C@H](C)c3ccncc3)nc3c(c2=O)C[C@@H](C)N(C(=O)c2ccc(Cl)c(Cl)c2)C3)cc1 (single isomer, unassigned) [Compound C375a] , is > 50 µM

CC50 at 3 days recorded for this compound, CC(C)Nc1nc2c(c(=O)n1-c1ccc(S(C)(=O)=O)cc1)CCN(C(=O)c1nc3ccc(Cl)cc3[nH]1)C2 [Compound C163] , is > 50 µM

CC50 at 3 days recorded for this compound, CNC(=O)c1ccc(-n2c(NCc3ccc4[nH]ccc4c3)nc3c(c2=O)C[C@@H](C)N(C(=O)c2ccc(Cl)c(Cl)c2)C3)cc1 [Compound C284] , is > 50 µM

CC50 at 3 days recorded for this compound, COc1ccc(CNc2nc3c(c(=O)n2-c2ccc(Br)cc2)CCN(C(=O)c2ccc(Cl)c(Cl)c2)C3)cc1 [Compound C125] , is > 50 µM

CC50 at 3 days recorded for this compound, COc1ccc(CNc2nc3c(c(=O)n2-c2cccc4ocnc24)CCN(C(=O)c2ccc(Cl)c(Cl)c2)C3)cc1 [Compound C148] , is > 38 µM

====

Reported CC50 at 3 days is given for each of the following molecules.
Experiment: in vitro
Assay type: cell-based
Conditions: human, HepG2 or HepG2.117 cells, 3-days incubation (unmarked values), ATPlite; mean value

CNC(=O)c1ccc(-n2c(N[C@@H](C)c3ccccc3)nc3c(c2=O)C[C@@H](C)N(C(=O)c2ccc(Cl)c(Cl)c2)C3)cc1 : 22.9 µM
CC(C)Nc1nc2c(c(=O)n1-c1ccc(C(=O)N3CCOCC3)cc1)C[C@@H](C)N(C(=O)c1ccc(Cl)c(Cl)c1)C2 : > 50 µM
CNC(=O)c1ccc(-n2c(N3CC[C@@H]3C)nc3c(c2=O)C[C@@H](C)N(C(=O)c2ccc(Cl)c(Cl)c2)C3)cc1 (single isomer, unassigned) : > 50 µM

CC50 at 3 days recorded for this molecule, COc1ccc(CNc2nc3c(c(=O)n2-c2ccc(-c4ncco4)cc2)CCN(C(=O)c2ccc(Cl)c(Cl)c2)C3)cc1 , is > 50 µM

CC50 at 3 days recorded for this molecule, CC(Nc1nc2c(c(=O)n1-c1ccc(S(C)(=O)=O)cc1)C[C@@H](C)N(C(=O)c1ccc(Cl)c(Cl)c1)C2)C1CC1 (stereo partly drawn) , is > 50 µM

CC50 at 3 days recorded for this molecule, COc1ccc(CNc2nc3c(c(=O)[nH]2)CCN(C(=O)c2ccc(Cl)c(C)c2)C3)cc1 , is 23.8 µM

====

Reported CC50 at 3 days is given for each of the following compounds.
Assay: in vitro
Assay type: cell-based
Settings: human, HepG2 or HepG2.117 cells, ATPlite, 3-days incubation (not marked with *), mean value

CC[C@H](C)Oc1nc2c(c(=O)n1-c1ccc(C(=O)NC)cc1)C[C@@H](C)N(C(=O)c1ccc(Cl)c(Cl)c1)C2 : 25.3 µM

CC50 at 3 days recorded for this compound, CC(=O)Nc1ccc(-n2c(NC(C)C)nc3c(c2=O)C[C@@H](C)N(C(=O)c2ccc(Cl)c(Cl)c2)C3)cc1 , is > 50 µM

CC50 at 3 days recorded for this compound, CNC(=O)c1ccc(-n2c(N[C@H](C)c3cc(C)no3)nc3c(c2=O)C[C@@H](C)N(C(=O)c2ccc(Cl)c(Cl)c2)C3)cc1 (single isomer, unassigned) [Compound C433a] , is > 50 µM

CC50 at 3 days recorded for this compound, CNC(=O)c1cc(-n2c(N[C@@H](C)c3ccc(C(F)(F)F)cc3)nc3c(c2=O)C[C@@H](C)N(C(=O)c2ccc(Cl)c(Cl)c2)C3)nn1C , is > 50 µM

CC50 at 3 days recorded for this compound, CNC(=O)c1ccc(-n2c(N[C@H](C)c3nc[nH]n3)nc3c(c2=O)C[C@@H](C)N(C(=O)c2ccc(Cl)c(Cl)c2)C3)cc1 (single isomer, unassigned) [Compound C439a] , is > 50 µM

====

Test: in vitro
Type: cell-based
Settings: human, HepG2 or HepG2.117 cells, ATPlite, 3-days incubation (not marked with *), mean value
parameter_measured: CC50 at 3 days

Some entries whose results are on file:
CNC(=O)c1ccc(-n2c(NC(C)C)nc3c(c2=O)C[C@@H](C)N(C(=O)c2cc4c(Br)cc(Cl)cc4[nH]2)C3)cc1 [Compound C576] : > 50 µM
CNC(=O)c1ccc(-n2c(NCc3nc(C(F)(F)F)n[nH]3)nc3c(c2=O)C[C@@H](C)N(C(=O)c2ccc(Cl)c(Cl)c2)C3)cc1 [Compound C598] : > 50 µM
CNC(=O)c1ncc(-n2c(NC(C)C)nc3c(c2=O)C[C@@H](C)N(C(=O)c2ccc(Cl)c(Cl)c2)C3)n1C [Compound C419] : > 50 µM
CNC(=O)[C@H]1CC[C@@H](n2c(N[C@@H](C)c3ccc(C(F)(F)F)cc3)nc3c(c2=O)C[C@@H](C)N(C(=O)c2ccc(Cl)c(Cl)c2)C3)CC1 [Compound C644] : 7.5 µM
CNC(=O)c1ccc(-n2c(NC(C)C)nc3c(c2=O)C[C@@H](C)N(C(=O)c2ccc(Cl)cc2C(F)(F)F)C3)cc1 [Compound C648] : > 50 µM

CC50 at 3 days recorded for this compound, CNC(=O)c1ccc(-n2c(N[C@@H](C)c3ccc(C(F)(F)F)cc3)nc3c(c2=O)C[C@@H](C)N(C(=O)c2ccc(Cl)c(Cl)c2)C3)nc1 [Compound C655] , is 9.1 µM

CC50 at 3 days recorded for this compound, CNC(=O)c1cc(-n2c(NC(C)C)nc3c(c2=O)C[C@@H](C)N(C(=O)c2ccc(Cl)c(C(F)F)c2)C3)n(C)n1 [Compound C672] , is > 50 µM

CC50 at 3 days recorded for this compound, CNC(=O)c1ccc(-n2c(N[C@H](C)c3cccc(OC)c3)nc3c(c2=O)C[C@@H](C)N(C(=O)c2ccc(Cl)c(Cl)c2)C3)cc1 (single isomer, unassigned) [Compound C394a] , is > 50 µM

CC50 at 3 days recorded for this compound, CNC(=O)c1ccc(-n2c(NC(C)C)nc3c(c2=O)C[C@@H](C)N(C(=O)c2ccc(Br)c4c2OCCC4)C3)cc1 [Compound C588] , is > 50 µM

CC50 at 3 days recorded for this compound, CNC(=O)c1ccc(-n2c(NC(C)C)nc3c(c2=O)C[C@@H](C)N(C(=O)c2cccc(Cl)c2OC)C3)cc1 [Compound C504] , is > 50 µM

CC50 at 3 days recorded for this compound, CNC(=O)c1ccc(-n2c(N[C@H](C)c3ccc4[nH]ncc4c3)nc3c(c2=O)C[C@@H](C)N(C(=O)c2ccc(Cl)c(Cl)c2)C3)cc1 (single isomer, unassigned) [Compound C529a] , is > 50 µM

CC50 at 3 days recorded for this compound, CNC(=O)c1ccc(-n2c(NC3COC(C)(C)C3)nc3c(c2=O)C[C@@H](C)N(C(=O)c2ccc(Cl)c(Cl)c2)C3)cc1 (stereo partly drawn) [Compound C480] , is > 50 µM
